System: serum cholesterol and serum triglycerides
Assay: Hypolipidaemic activity in rats (compound in diet, last 7 of 10 days)
Assay type: in vivo, Male Wistar rats
Conditions: Rattus norvegicus, po, 168 h, 0.2 % w/w dose in diet, 7 days, read-out: % change in serum triglycerides compared with control
READOUT_NAME: change in vivo at 0.2 % strength
I'd appreciate it if you wrote the number followed by its unit.

MOLECULE	RESULT
CCCCCCCCCCCCCCCCCCC1CNc2ccc(C(=O)O)cc21 (racemic) [Compound BOO]	9%
CCCCCCCC1Cc2cc(C(=O)O)ccc2N1 (racemic) [Compound ABB]	-34%
CCCCCCCCC1CNc2cc(C(=O)O)ccc21 (racemic) [Compound CCC]	-28%
CCCCCCCCCCCCCCCCCCc1c[nH]c2ccc(C(=O)O)cc12 [Compound BSS, 3-(n-octadecyl)indole-5-carboxylic acid]	-11%
CCCCCCCCCCCCc1cc2cc(C(=O)OC)ccc2[nH]1 [Compound AVV, methyl 2-(n-dodecyl)indole-5-carboxylate]	-80%

Reported change in vivo at 0.2 % strength for serum cholesterol and serum triglycerides, given CCCCCCCCCc1cc2cccc(C(=O)O)c2[nH]1 [Compound WW, 2-(n-nonyl)indole-7-carboxylic acid] ?
45%

// map CCCCCCCCc1cc2ccc(C(=O)O)cc2[nH]1 [Compound P, 2-(n-octyl)indole-6-carboxylic acid] to recorded change in vivo at 0.2 % strength (system: serum cholesterol and serum triglycerides)
-37%

What reported change in vivo at 0.2 % strength corresponds to CCCCCCCCCC(C)c1cc2ccc(C(=O)O)cc2[nH]1 (racemic) [Compound VV] on serum cholesterol and serum triglycerides?
-73%

Quick check: change in vivo at 0.2 % strength on serum cholesterol and serum triglycerides, item CCCCCCCCc1c[nH]c2cc(C(=O)OC)ccc12 [Compound AZZ, methyl 3-(n-octyl)indole-6-carboxylate] ?
24%

Observed change in vivo at 0.2 % strength on serum cholesterol and serum triglycerides for CCCCCCCCCCCCCCCc1cc2cccc(C(=O)O)c2[nH]1 [Compound I, 2-(n-pentadecyl)indole-7-carboxylic acid] , please.
-33%

Entry CCCCCCCCCCc1cc2cc(C(=O)O)ccc2[nH]1 [Compound M, 2-(n-decyl)indole-5-carboxylic acid] , system serum cholesterol and serum triglycerides: what change in vivo at 0.2 % strength was measured?
-65%

Item: CCCCCCCCCCCCCCCCCc1cc2cc(C(=O)O)ccc2[nH]1 [Compound E, 2-(n-heptadecyl)indole-5-carboxylic acid] Test system: serum cholesterol and serum triglycerides Read-out: change in vivo at 0.2 % strength Value: ?
-65%

Give serum cholesterol and serum triglycerides change in vivo at 0.2 % strength for CCCCCCCc1cc2cc(C(=O)O)ccc2[nH]1 [Compound Q, 2-(n-heptyl)indole-5-carboxylic acid]
-14%

Reported change in vivo at 0.2 % strength for serum cholesterol and serum triglycerides, given CCCCCCCc1cc2ccc(C(=O)O)cc2[nH]1 [Compound R, 2-(n-heptyl)indole-6-carboxylic acid] ?
-18%

Under serum cholesterol and serum triglycerides: change in vivo at 0.2 % strength value of CCCCCCCc1cc2cc(C(=O)OC)ccc2[nH]1 [Compound ASS, methyl 2-(n-heptyl)indole-5-carboxylate] ?
-20%

Record lookup: for serum cholesterol and serum triglycerides, what change in vivo at 0.2 % strength belongs to CCCCCCCCCCCCCCCc1cc2c(C(=O)OCC)cccc2[nH]1 [Compound EE] ?
-2%

Notebook: pull reported change in vivo at 0.2 % strength for serum cholesterol and serum triglycerides, entry CCCCCCCCCc1cc2ccc(C(=O)O)cc2[nH]1 [Compound L, 2-(n-nonyl)indole-6-carboxylic acid]
-25%
